Reported glycan array binding signal (z-score) values for the following binders.
# targetEntity: Gal(a1-3)GalNAc
# procedureText: glycan array binding signal (z-score within array); higher = stronger binding
# conditionDescription: glycan notation: IUPAC condensed, linker removed
This is one part of a sample in which the strongest signals are shown more often than they occur.
Please state the value as a number alone, without comment.

Example results:
| binder | result |
| --- | --- |
| AT1G15820(2) (Arabidopsis thaliana), Q9LMQ2 (protein) MAMAVSGAVLSGLGSSFLTGGKRGATALASGVGTGAQRVGRKTLIVAAAAAQPKKSWIPAVKGGGNFLDPEWLDGSLPGDFGFDPLGLGKDPAFLKWYREAELIHGRWAMAAVLGIFVGQAWSGVAWFEAGAQPDAIAPFSFGSLLGTQLLLMGWVESKRWVDFFNPDSQSVEWATPWSKTAENFANYTGDQGYPGGRFFDPLGLAGKNRDGVYEPDFEKLERLKLAEIKHSRLAMVAMLIFYFEAGQGKTPLGALGL | 3.12 |
| XCL (Xerocomus chrysenteron) (protein) MSYSITLRVYQTNRDRGYFSIVEKTVWHFANGGTWSEANGAHTLTQGGSGTSGVLRFLSTKGERITVAVGVHNYKRWCDVVTGLKPDETALVINPQYYNNGGRDYVREKQLAEYSVTSAIGTKVEVVYTVAEGNNLEANVIFS | -0.207 |
| EUL D1A second (Oryza sativa) (protein) GAATACTIGGVPVHTVRVFSAAGEDYCLTVRNGTACLAPKNPRDDYQHWIKDMRHSNKIRDEEGYPAFALVNKVTGEAIKHSTGQGHPVKLVPYNPEYQDESVLWTESKDVGKGFRCIRMVNNIYLNFDAFHGDKDHGGIHDGTEIVLWKWCEGDNQRWKILPWILEQKLISEEDLNSAVDHHHHHH | -1.42 |

[Q] glycan array binding signal (z-score) for AT3G09350(27) (Arabidopsis thaliana), Q84J81 (protein) MAKDGPNWDGLLKWSLSHADGTRPTRQLSEEDRKWFMEAMQSQTVDVVKRMKEITLVMQTPEQVLVEHGVTPEDIQDLLDELQEHVESIDMANDLHSIGGLVPLLSFLKNSHANIRAKAADVVSTIVQNNPRSQELVMETNALESLLSNFTSDTDIHARTQALGAISSLIRHNKPGVTAFKLANGYAGLRDALASDSVRFQRKALNLLQYLLQEDDSDRSIATGLGFPRVMMHLASSDDAEIREAALRGLLELSREKNDGSSSIDKSDEKLRQLLEERIKGITLMSQEDLETVKEERQLVDLLWSICYNEPSSLREKGLVVLPGEDALPPDVASKLFEPPLRASAANRNATEKKDEPMKLLGP ?
[A] 2.5
